# system name: T1, human Claudin18.2 (CLDN18.2) (human, UniProt P56856 1-261)
# T1 construct: the cell line is named under assay; also called human Claudine18.2; hClaudin18.2
# experimental details: FACS on CHOK1-18.2 cells;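 also: antibody binding to the cells detected with a fluorescently labelled secondary antibody and read out as median fluorescence intensity by flow cytometry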
readout name: FACS MFI

Consider the binder shown here: Ab11 (antibody, V domains shown, mouse monoclonal (hybridoma)) VH: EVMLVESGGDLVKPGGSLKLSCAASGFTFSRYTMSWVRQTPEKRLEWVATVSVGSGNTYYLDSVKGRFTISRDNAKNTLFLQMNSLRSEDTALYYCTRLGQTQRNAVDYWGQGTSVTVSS VL: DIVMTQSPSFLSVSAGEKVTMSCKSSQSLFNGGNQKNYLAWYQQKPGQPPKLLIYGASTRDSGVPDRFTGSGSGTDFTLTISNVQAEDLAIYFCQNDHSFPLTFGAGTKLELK What is its recorded FACS MFI?
9800

Just for reference, patent US20230095569A1 is where these values come from.
